Assay: Terminal half life in renal transplant patient
Assay type: ADME, organism-based
Settings: human, in vivo; read-out: beta t1/2 (converted)
property measured: half-life (h)
Quick reminder: number only, in h, skip the unit.

**Q:** Need half-life, item N=C(N)NCCCCCCC(=O)N[C@@H](O)C(=O)NCCCCNCCCN
**A:** 2

====

Test: Antiproliferative activity against human bladder cancer cells
Format: functional, cell-based
Details: Cancer cell lines
property measured: IC50 (µM)
Could you give me the number in µM? Just the number is fine.

**Q:** Fill in the blank: the reported IC50 of CCn1c(=O)/c(=C2\Sc3ccccc3N2C)s/c1=C\c1cccc[n+]1CC is ____.
**A:** 1
